B1: TLE6 (parent)
chain: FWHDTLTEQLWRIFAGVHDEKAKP

- Variants of: B1
- ASSAY_INFO: protein stability index of a GFP-peptide fusion (GPS, HEK-293T) (PSI 1-6); higher = more stable;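 also: lentivirally expressed fusions sorted by FACS into six bins by GFP to DsRed ratio, PSI derived from sequencing read proportions per bin multiplied by bin number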
- CONDITION_SUMMARY: c terminus: a fixed tail appended
OBSERVABLE: protein stability index
Lab note: jot the number down without any unit.

{"RESIDUE_STRING": "FWHDTLTEQLWRVFAGVHDEKAKP [I13V]", "VAL": 1.72}
{"RESIDUE_STRING": "FWHDTLTEQLWKIFAGVHDEKAKP [R12K]", "VAL": 2.17}
{"RESIDUE_STRING": "FWHDTLTEQLWRIFAGVTDEKAKP [H18T]", "VAL": 2.13}
{"RESIDUE_STRING": "FWHDTLTEQLWRIFAGVHDEKAHP [K23H]", "VAL": 2.5}
{"RESIDUE_STRING": "FWHDTLTEQQWRIFAGVHDEKAKP [L10Q]", "VAL": 2.19}
{"RESIDUE_STRING": "FWHDTLKEQLWRIFAGVHDEKAKP [T7K]", "VAL": 2.16}

Report measured protein stability index; entry is FWHDTLTEQLWRIFFGVHDEKAKP [A15F]
1.73

Quote protein stability index reported for FWHDTLTEQLWRIFAGVHDEKAKL [P24L] please.
1.5

Name the recorded protein stability index of the variant listed here: FWHDTLTEQLWRIFANVHDEKAKP [G16N]
2.07
